Source: patent US10626126B2

- System: RSV B Washington strain
- Test Method Notes: RSV B induced CPE in HEp2 cells
- Assay type: cell-based
- Test Settings: human respiratory syncytial virus, HEp-2, 144 h, 6 days
Quantity Measured: IC50 (nM)

1) O=C(Nc1c(F)cccc1F)c1cc2c(s1)-c1sccc1N(C(=O)c1ccc(NC(=O)c3cc4sccc4nc3N3CC4(CCOCC4)C3)cc1F)CC2 | 15
2) O=C(Nc1c(F)cccc1F)c1cc2c(s1)-c1sccc1N(C(=O)c1ccc(NC(=O)c3cccnc3N3CC4(CCOCC4)C3)cc1)CC2 | 63

[P] Cc1cnc(N2CC3(CCOCC3)C2)c(C(=O)Nc2ccc(C(=O)N3CCc4cc(C(=O)Nc5c(C)cccc5F)sc4-c4sccc43)cc2)c1
[Q] Cc1cnc(N2CC3(COC3)C2)c(C(=O)Nc2ccc(C(=O)N3CCc4cc(C(=O)Nc5c(F)cccc5F)sc4-c4sccc43)cc2)c1
[R] Cc1cnc(N2CC3(CCOCC3)C2)c(C(=O)Nc2ccc(C(=O)N3CCc4cc(C(=O)Nc5ccc(F)cc5F)sc4-c4sccc43)cc2)c1
Ask: Thanks in advance: please rank these 3 entries by IC50, highest to lowest. Please list the labels in the order you were asked to rank them.
Result: Q, R, P
(Q: 602 nM, R: 123 nM, P: 8.3 nM)

[A] Cc1cnc(N2CC3(CCOCC3)C2)c(C(=O)Nc2ccc(C(=O)N3CCc4cc(C(=O)Nc5ccccc5F)sc4-c4sccc43)cc2)c1
[B] Cc1ccc(C(=O)Nc2ccc(C(=O)N3CCc4cc(C(=O)Nc5c(F)cccc5F)sc4-c4sccc43)c(F)c2)c(N2CC3(CCOCC3)C2)n1
Ask: Decide: A or B , by lowest recorded IC50. Refer to your chosen entry by its label in the reply.
Result: B
